Values of melting point strictly less than 100 °C map to class 1, and values of at least 100 °C map to class 0.

[[record]]
molecule = "FC(F)(F)COc1ccc(OCC(F)(F)F)cc1"
assigned_label = "class 1"

[[record]]
molecule = "Clc1ccc(-c2c(Cl)cc(Cl)c(Cl)c2Cl)c(Cl)c1"
assigned_label = "class 1"

[[record]]
molecule = "CC(C(=O)O)c1cccc(C(=O)c2ccccc2)c1 (configuration not stated)"
assigned_label = "class 1"

[[record]]
molecule = "CC(C)C1=CCC2C(=C1)CCC1C(C)(C(=O)O)CCCC21C (configuration not stated)"
assigned_label = "class 0"

[[record]]
molecule = "CC(=O)Oc1ccc(OC(C)=O)c(-c2ccccc2)c1"
assigned_label = "class 1"

[[record]]
molecule = "CC1CCCCC1NC(=O)Nc1ccccc1 (configuration not stated)"
assigned_label = "class 0"


---

Catalogue of melting point values
Reported Endpoint: melting point

[[record]]
compound = "O=C(O)C1CCN(c2ccc(C(F)(F)F)cn2)CC1"
reported_endpoint = "melting point"
recorded_value = "162 to 164 °C"

[[record]]
compound = "CC(=O)CS(=O)(=O)c1ccc(Cl)cc1"
reported_endpoint = "melting point"
recorded_value = "89 to 91 °C"

[[record]]
compound = "Nc1ccc(C(=O)O)cc1OC(F)(F)F"
reported_endpoint = "melting point"
recorded_value = "168 to 169 °C"

[[record]]
compound = "CC(/C=C(\\C)c1ccc(-c2ccccc2)cc1)=NNc1ccc([N+](=O)[O-])cc1[N+](=O)[O-]"
reported_endpoint = "melting point"
recorded_value = "200 to 201 °C"

[[record]]
compound = "CCOC(=O)c1csnn1"
reported_endpoint = "melting point"
recorded_value = "86 to 88 °C"

[[record]]
compound = "O=C(N=C=S)c1ccccc1"
reported_endpoint = "melting point"
recorded_value = "128 to 131 °C"

[[record]]
compound = "COC1=C(OC)C(C(COS(C)(=O)=O)OS(C)(=O)=O)OC1=O (stereo not drawn)"
reported_endpoint = "melting point"
recorded_value = "77 to 79 °C"

[[record]]
compound = "Cc1ccc(C=C(Oc2ccccc2)c2nc3ccccc3s2)cc1"
reported_endpoint = "melting point"
recorded_value = "161 to 165 °C"

[[record]]
compound = "CCOC(=O)c1cc2ccccc2cc1O"
reported_endpoint = "melting point"
recorded_value = "80 to 81 °C"

[[record]]
compound = "O=Cc1cccc(N2CCOCC2)c1"
reported_endpoint = "melting point"
recorded_value = "68 to 70 °C"

[[record]]
compound = "O=C(Cl)c1cncc(Br)c1"
reported_endpoint = "melting point"
recorded_value = "84 to 86 °C"

[[record]]
compound = "CCC1(c2cccc(O)c2)CCCCN(C)C1=O (stereo not drawn)"
reported_endpoint = "melting point"
recorded_value = "172 to 176 °C"

[[record]]
compound = "Cc1ccc(C=O)c2ccccc12"
reported_endpoint = "melting point"
recorded_value = "31 to 33 °C"


---

Catalogue of melting point values
Reported Endpoint: melting point

[[record]]
smiles_notation = "COC(=O)c1ccc2snnc2c1"
reported_endpoint = "melting point"
recorded_value = "118 to 120 °C"

[[record]]
smiles_notation = "NNC(=O)COc1ccc(Cl)cc1Cl"
reported_endpoint = "melting point"
recorded_value = "153 to 157 °C"

[[record]]
smiles_notation = "CC(=O)C(=Cc1ccc(-c2ccccc2[N+](=O)[O-])o1)C(C)=O"
reported_endpoint = "melting point"
recorded_value = "127 to 128 °C"

[[record]]
smiles_notation = "O=C(O)[C@H](Cc1ccccc1)NC(=O)C(F)(F)F"
reported_endpoint = "melting point"
recorded_value = "126 to 127 °C"


Values compiled from a melting point compilation (Tetko et al.).
